Where do these numbers come from? They come from PubChem BioAssay AID588477.

# EC50 listing for each entry below
Biological target: Cdc42 wt
Experiment: small GTPase nucleotide-binding inhibition, multiplex panel – biochemical, round 1 SAR, Mg buffer, multiplex flow cytometry, selectivity assay for Cdc42 probe extension project, SAR follow-up (AID 588477)
Details: GST-GTPase beads, Bodipy-GTP binding

Molecule | Target System | EC50
NS(=O)(=O)c1ccc(N2N=C(c3ccccc3)CC2c2ccccc2)cc1 (configuration not stated) | Cdc42 wt | 7.26 µM
COc1ccc(C2CC(c3ccccc3)=NN2c2ccc(S(N)(=O)=O)cc2)cc1 (configuration not stated) | Cdc42 wt | 2.41 µM
